Every entry's value here was drawn from patent US7855228B2.

tested on: B. subtilis 168; assay: Determination of minimum inhibitory concentration (MIC); assay type: cell-based, Bacillus subtilis; details: Bacillus subtilis, 168, Example 2; methods as in Example 1; read-out: MIC B. subtilis
Outcome measure: MIC (µg/mL)
Give bare numbers, in µg/mL.

CC1(C)S[C@@H]2[C@H](NC(=O)C(N)c3ccccc3)C(=O)N2[C@H]1C(=O)O (some centres unmarked) [ABPC, reference compound] | 0.0488
CC1(C)S[C@@H]2[C@H](NC(=O)c3ccccc3)C(=O)N2[C@H]1C(=O)O [PCG, reference compound] | 0.0122
N=C(N)SCc1ccc([N+](=O)[O-])cc1 | 25

Take each entry in turn and give its MIC.
1. S=C=NCc1ccccc1 [Compound 8, benzylisothiocyanate, reference compound]
2. N=C(N)SCc1ccc(F)cc1

result:
1. 25
2. 50

###

system: E. coli MG1655; test: Microscopic observation of cell shape; assay type: cell-based; conditions: E. coli MG1655 treated at 300 μg/ml (**), 30° C., 16 h
Outcome measure: Shape

Known Shape results, listed for orientation:
CCCCCCCSC(=N)N | Rod**
S=C=NCc1ccccc1 [Compound 8, benzylisothiocyanate, reference compound] | Rod**
NC(=S)Nc1ccccc1 [Compound 10, N-phenylthiourea, reference compound] | Rod**
O=C=NCc1ccccc1 [Compound 9, benzylisocyanate, reference compound] | Rod**
N=C(N)SCC1CCCCC1 | Rod**

Then there is this compound:
query: Item `CCSC(=N)N` has what recorded Shape?
result: Rod**

###

System: E. coli MG1655
Assay: Microscopic observation of cell shape
Format: cell-based
Settings: Example 2; methods as in Example 1
Protocol: Microscopic observation. E. coli K-12 strain MG1655 (F^− λ^−) was grown in Lennox broth containing 1% Polypepton, 0.5% yeast extract, 0.5% NaCl, and 0.1% glucose (pH 7.2). Cells spread on a slide glass were treated with methanol for 5 min and covered with poly-L-lysine. […] To observe the anucleate cells, cells were stained with a 4′,6-diamidino-2-phenylindole (DAPI) solution (5 μg/ml in saline) and then observed by the fluorescence phase-contrast combined method. […]
Outcome measure: Shape

CCCCCCCSC(=N)N | Rod
N=C(N)SCc1ccccc1 | Sphere
N=C(N)SCc1c(F)cccc1F | Sphere
CC1(C)S[C@@H]2[C@H](NC(=O)C(N)c3ccccc3)C(=O)N2[C@H]1C(=O)O (stereo partly shown) [ABPC, reference compound] | Fil
N=C(N)SCc1ccc(Cl)nc1 | Sphere

Take each entry in turn and give its Shape.
1. N=C(N)SCc1c(Cl)cc(Cl)cc1Cl
2. CN(C)[C@@H]1C(O)=C(C(N)=O)C(=O)[C@@]2(O)C(O)=C3C(=O)c4c(O)cccc4[C@@](C)(O)C3CC12 (stereo partly shown) [TC, reference compound]
3. N=C(N)SCc1cccc(Cl)c1Cl
4. Cc1ccc(CSC(=N)N)cc1
5. I.Nc1nc(-c2ccccc2)cs1 [TZ, reference compound]

result:
Sphere
Rod
Sphere
Sphere
Rod

###

tested on: E. coli MG1655; experiment: Microscopic observation of cell shape; assay type: cell-based; conditions: Example 2; methods as in Example 1
Outcome measure: Shape

Known Shape results, listed for orientation:
COc1ccc(CSC(=N)N)cc1 | Sphere
N=C(N)SCc1ccc(Cl)cc1Cl | Sphere
O=C(N[C@H](CO)[C@H](O)c1ccc([N+](=O)[O-])cc1)C(Cl)Cl [CP, reference compound] | Rod
N=C(N)SCc1ccccc1Br | Sphere
N=C(N)SCc1cccc(Cl)c1 | Sphere

Take each entry in turn and give its Shape.
1. N=C(N)SCc1c(F)c(F)c(F)c(F)c1F
2. CCSC(=N)N
3. N=C(N)SCc1c(Cl)cccc1Cl
4. CC1(C)S[C@@H]2[C@H](NC(=O)c3ccccc3)C(=O)N2[C@H]1C(=O)O [PCG, reference compound]

result:
["Sphere", "Rod", "Sphere", "Fil"]

###

Answer each item with its documented MIC.
tested on: B. subtilis 168; test: Determination of minimum inhibitory concentration (MIC); type: cell-based, Bacillus subtilis; conditions: Bacillus subtilis, 168, Example 2; methods as in Example 1; read-out: MIC B. subtilis

N=C(N)SCc1ccc(C(F)(F)F)cc1 | > 100 µg/mL

Take each entry in turn and give its MIC.
1. N=C(N)SCc1cccc(F)c1
2. N=C(N)SCc1ccc(Cl)nc1
3. N=C(N)SCc1ccc(Br)cc1

result:
["50 µg/mL", "> 100 µg/mL", "> 100 µg/mL"]

###

tested on: E. coli MG1655; assay: Microscopic observation of cell shape; type: cell-based; conditions: Example 2; methods as in Example 1
Outcome measure: Shape

Known Shape results, listed for orientation:
N=C(N)SCc1cc(F)c(Cl)cc1Cl [2,4-Cl 5-F] | Sphere
N=C(N)SCc1cccc(F)c1 [Compound 3-F] | Sphere
N=C(N)SCc1cccc(C(F)(F)F)c1 [Compound 3-CF3] | Sphere
N=C(N)SCc1ccc(Br)cc1 [Compound 4-Br, S-(4-Bromo-benzyl)-isothiourea] | Sphere

Take each entry in turn and give its Shape.
1. N=C(N)SCc1ccc(I)cc1 [Compound 4-I, S-(4-Iodo-benzyl)-isothiourea]
2. S=C=NCc1ccccc1 [Compound 8, benzylisothiocyanate, reference compound]

result:
["Sphere", "Rod"]

###

system: B. subtilis 168; experiment: Determination of minimum inhibitory concentration (MIC); format: cell-based, Bacillus subtilis; details: Bacillus subtilis, 168, Example 2; methods as in Example 1; read-out: MIC B. subtilis
Outcome measure: MIC

N=C(N)SCc1ccccc1C(F)(F)F | > 100 µg/mL
N=C(N)SCc1ccccc1 | > 100 µg/mL
N=C(N)SCc1ccccc1Cl | > 100 µg/mL
CC1(C)S[C@@H]2[C@H](/N=C/N3CCCCCC3)C(=O)N2[C@H]1C(=O)O [mecillinam, reference compound] | 12.5 µg/mL
N=C(N)SCc1c(F)cccc1F | > 100 µg/mL

Take each entry in turn and give its MIC.
1. N=C(N)SCc1c(Cl)cc(Cl)cc1Cl
2. I.Nc1nc(-c2ccccc2)cs1 [TZ, reference compound]
3. N=C(N)SCc1cc(Cl)cc(Cl)c1
4. N=C(N)SCc1cccc(Cl)c1Cl
5. N=C(N)SCc1ccc(Cl)cc1Cl
6. N=C(N)SCc1ccc(F)c(F)c1
7. N=C(N)SCc1ccccc1Br

result:
["100 µg/mL", "> 100 µg/mL", "> 100 µg/mL", "100 µg/mL", "> 100 µg/mL", "25 µg/mL", "> 100 µg/mL"]

###

Tested on: B. subtilis 168
Assay: Determination of minimum inhibitory concentration (MIC)
Format: cell-based, Bacillus subtilis
Settings: Bacillus subtilis, 168, Example 2; methods as in Example 1; read-out: MIC B. subtilis
Experimental: Determination of minimum inhibitory concentration (MIC). MICs were also determined on Mueller Hinton agar plates (0.2% beef extract, 1.75% acid digest of casein, 0.15% soluble starch, 1.5% agar, pH 7.3). Determination of MIC Minimal inhibitory concentrations (MICs) were determined using a standard 2-fold serial dilution format on L agar plates. Ten microliters of stationary culture diluted in 0.85% NaCl to 10^6 cells/ml were spotted on per plate. […]
Answer each item with its documented MIC.

Take each entry in turn and give its MIC.
1. Cc1ccc(CSC(=N)N)cc1
2. N=C(N)SCc1cccc(Cl)c1
3. N=C(N)SCc1c(Cl)cccc1Cl
4. N=C(N)SCc1ccc(Cl)c(Cl)c1
5. O=C(N[C@H](CO)[C@H](O)c1ccc([N+](=O)[O-])cc1)C(Cl)Cl [CP, reference compound]

result:
1. > 100 µg/mL
2. 50 µg/mL
3. > 100 µg/mL
4. 100 µg/mL
5. 3.13 µg/mL

Take each entry in turn and give its MIC.
1. N=C(N)SCc1ccc(Cl)cc1
2. CCCCCCCSC(=N)N

result:
1: > 100 µg/mL; 2: > 200 µg/mL

Take each entry in turn and give its MIC.
1. N=C(N)SCc1c(F)c(F)c(F)c(F)c1F
2. N=C(N)SCc1ccc(I)cc1
3. N=C(N)SCc1cc(F)c(Cl)cc1Cl
4. N=C(N)SCc1cccc(C(F)(F)F)c1
5. COc1ccc(CSC(=N)N)cc1

result:
1: > 100 µg/mL; 2: > 100 µg/mL; 3: 12.5 µg/mL; 4: > 100 µg/mL; 5: > 100 µg/mL

###

Answer each item with its documented MIC.
tested on: B. subtilis 168; test: Determination of minimum inhibitory concentration (MIC); type: cell-based, Bacillus subtilis; conditions: Bacillus subtilis, 168, Example 2; methods as in Example 1; read-out: MIC B. subtilis

N=C(N)SCc1ccccc1F | > 100 µg/mL
N=C(N)SCc1cc(Cl)ccc1Cl | > 100 µg/mL
N=C(N)SCC1CCCCC1 | > 200 µg/mL

Then there is this molecule:
query: Enter reported MIC observed with B. subtilis 168 for CC1CN(c2c(F)c(N)c3c(=O)c(C(=O)O)cn(C4CC4)c3c2F)CC(C)N1 (stereo not shown) [SPFX, reference compound]
result: 0.0244 µg/mL
